molecular target: UniProtKB P08908; details: HeLa
Description: Agonist activity at human recombinant 5HT1A receptor expressed in human HeLa cells assessed as increase in [35S]GTPgammaS binding incubated for 20 mins by liquid scintillation counter
Entries and their measured pD2 follow.
Format: numeric value only, no unit, no commentary.

Identify the reported pD2 for the following entry. COc1ccccc1OCCNCC[C@H]1CO[C@H](C(c2ccccc2)c2ccccc2)O1 (relative stereo)
6.24

---
Report measured pD2; entry is `COc1ccccc1OCCNCC1COC(c2ccccc2)(c2ccccc2)OC1.O=C(O)C(=O)O`
9.22

Look up and report measured pD2 for this entry: OCC(CNCCOc1ccccc1)OC(c1ccccc1)c1ccccc1 (stereo not given)
7.51

* * *

Target: 5-hydroxytryptamine receptor 1A (Homo sapiens)
Sequence (P08908 whole entry): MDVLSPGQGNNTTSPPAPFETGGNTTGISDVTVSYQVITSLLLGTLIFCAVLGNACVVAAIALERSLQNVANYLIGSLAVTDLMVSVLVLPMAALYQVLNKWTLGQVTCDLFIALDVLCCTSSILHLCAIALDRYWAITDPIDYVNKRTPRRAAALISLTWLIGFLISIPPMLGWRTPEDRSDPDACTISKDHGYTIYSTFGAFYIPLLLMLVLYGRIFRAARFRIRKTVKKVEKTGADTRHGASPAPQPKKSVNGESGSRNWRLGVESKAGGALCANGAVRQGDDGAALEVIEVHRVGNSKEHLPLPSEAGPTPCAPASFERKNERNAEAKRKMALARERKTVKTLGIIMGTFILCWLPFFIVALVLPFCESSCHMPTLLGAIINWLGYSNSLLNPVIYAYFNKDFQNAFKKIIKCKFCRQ
Experiment: Displacement of [3H]8-OH-DPAT from human cloned 5HT-1AR transfected in HeLa cells incubated for 30 mins by liquid scintillation counter
pKi: −log10 of the molar value.
Response key: 1 (yes) means pKi >= 8; 0 (no) means pKi < 8.

Sample answers from the record:
Is reported pKi greater than or equal to 8 here: COc1ccccc1OCCNCC1CCOC(c2ccccc2)(c2ccccc2)O1 (centres undefined)
1 (yes)

Check the entry COc1ccccc1OCCNC[C@H]1CO[C@H](C(c2ccccc2)c2ccccc2)O1 (relative stereo) : does pKi equal or exceed 8?
1 (yes)

Quick check: does `c1ccc(OCCNCC2COC(c3ccccc3)(c3ccccc3)OC2)cc1` have pKi greater than or equal to 8?
0 (no)

Determine whether this molecule has pKi no lower than 8: COc1ccccc1OCCNCC(CO)OC(c1ccccc1)c1ccccc1 (centres undefined)
1 (yes)

New cases:
Given the entry OCC(CNCCOc1ccccc1)OC(c1ccccc1)c1ccccc1 (centres undefined) , answer whether its pKi meets or surpasses 8.
1 (yes)

Check the entry c1ccc(OCCNCCC2COC(c3ccccc3)(c3ccccc3)O2)cc1 (centres undefined) : does pKi equal or exceed 8?
0 (no)

Hi team, for c1ccc(OCCNC[C@H]2CO[C@H](C(c3ccccc3)c3ccccc3)O2)cc1 (relative stereo) , is the recorded pKi at or above 8?
1 (yes)

* * *

assay: Half life in Sprague-Dawley rat brain at 10 mg/kg, po measured after 15 to 45 mins by LC/MS-MS analysis; type: ADME, organism-based
assay_readout: half-life
Write the figure, then the unit, nothing else.

Answer with the recorded half-life for the compound listed here: `COc1ccccc1OCCNCC1COC(c2ccccc2)(c2ccccc2)OC1.O=C(O)C(=O)O`
6.2 min

* * *

biological target: Alpha-1D adrenergic receptor (Rattus norvegicus) (UniProt P23944); assay: Antagonist activity at alpha-1d adrenergic receptor in Wistar rat thoracic aorta assessed as inhibition of (-)-noradrenaline-induced contractions
Sequence (P23944 whole entry): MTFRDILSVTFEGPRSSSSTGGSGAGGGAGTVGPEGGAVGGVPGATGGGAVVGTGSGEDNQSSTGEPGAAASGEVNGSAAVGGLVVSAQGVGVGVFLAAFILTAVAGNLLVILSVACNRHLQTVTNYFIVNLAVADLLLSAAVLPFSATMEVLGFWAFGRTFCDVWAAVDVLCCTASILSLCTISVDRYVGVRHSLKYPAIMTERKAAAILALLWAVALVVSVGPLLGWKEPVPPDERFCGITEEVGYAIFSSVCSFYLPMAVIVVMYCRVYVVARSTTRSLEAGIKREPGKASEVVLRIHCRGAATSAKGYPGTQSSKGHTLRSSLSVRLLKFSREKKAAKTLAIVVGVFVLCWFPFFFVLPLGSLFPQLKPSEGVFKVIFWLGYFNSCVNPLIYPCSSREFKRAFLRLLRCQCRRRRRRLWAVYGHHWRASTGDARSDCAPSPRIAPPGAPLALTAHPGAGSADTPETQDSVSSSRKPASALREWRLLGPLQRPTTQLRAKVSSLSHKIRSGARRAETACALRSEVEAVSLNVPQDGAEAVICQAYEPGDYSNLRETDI
Kind request: treat 8 as inclusive, so pKb at 8 or higher is TRUE, anything lower is FALSE.

Use these answered entries as a reference point.
Can c1ccc(OCCNCC2CCOC(c3ccccc3)(c3ccccc3)O2)cc1 (stereo not given) be said to have pKb at or above 8?
FALSE

Is reported pKb greater than or equal to 8 here: OCC(CNCCOc1ccccc1)OC(c1ccccc1)c1ccccc1 (stereo not given)
FALSE

Check this compound for pKb at or above 8: `COc1ccccc1OCCNCC1COC(c2ccccc2)(c2ccccc2)OC1.O=C(O)C(=O)O`
FALSE

Reported pKb at or above 8? COc1ccccc1OCCNC[C@H]1CO[C@H](C(c2ccccc2)c2ccccc2)O1 (relative stereo)
FALSE

Answer whether pKb of c1ccc(OCCNCCC2COC(c3ccccc3)(c3ccccc3)O2)cc1 (stereo not given) is greater than or equal to 8.
FALSE

Assess whether reported pKb for c1ccc(OCCNCC[C@H]2CO[C@H](C(c3ccccc3)c3ccccc3)O2)cc1 (relative stereo) sits at 8 or higher.
FALSE

Reported pKb reaches at least 8 for COc1ccccc1OCCNC[C@@H]1CO[C@H](C(c2ccccc2)c2ccccc2)O1 (relative stereo) ?
FALSE

Does c1ccc(OCCNCC[C@@H]2CO[C@H](C(c3ccccc3)c3ccccc3)O2)cc1 (relative stereo) have a reported pKb of at least 8?
FALSE

Dear colleague, could you confirm whether c1ccc(OCCNC[C@@H]2CO[C@H](C(c3ccccc3)c3ccccc3)O2)cc1 (relative stereo) has pKb at or above 8?
FALSE

Does COc1ccccc1OCCNCC[C@@H]1CO[C@H](C(c2ccccc2)c2ccccc2)O1 (relative stereo) have a reported pKb of at least 8?
FALSE

---
Threshold query (pKb >= 8) on COc1ccccc1OCCNCC1CCOC(c2ccccc2)(c2ccccc2)O1 (stereo not given)
TRUE

Identify whether the reported pKb of the following compound is 8 or greater: `COc1ccccc1OCCNCCOC(c1ccccc1)c1ccccc1`
FALSE
